# reported fold change; entries follow
test: HSE-luciferase reporter activators – cell-based (AID 1611); settings: human cells, HSE-luciferase heat shock reporter; stronger effect = higher value
Please state the value as a number alone, without comment.

Consider the reported fold change for these compounds:
| compound | fold change |
| --- | --- |
| O=C(O)c1ccccc1OP(=O)(O)O | 1.04 |
| CN(C)CCOC(c1ccccc1)c1ccccc1 (tested in a mixture with another compound) | 0.8 |

Summary for this compound, CC(COc1ccccc1)NC(C)[C@H](O)c1ccc(O)cc1 (stereo partly specified) : fold change is 5.01

Summary for this compound, CCn1cc(C(=O)O)c(=O)c2cc(F)c(N3CCNCC3)cc21 : fold change is 1.06

====

assay: HSE-luciferase reporter activators – cell-based (AID 1611); settings: human cells, HSE-luciferase heat shock reporter; stronger effect = higher value
reported-endpoint: fold change
Please state the value as a number alone, without comment.

Summary for this compound, CN1CCN(C(c2ccccc2)c2ccc(Cl)cc2)CC1 (stereo not given) : fold change is 1.12

Summary for this compound, C[C@@H]1O[C@@H](O[C@H]2[C@H](Oc3cc(O)c4c(c3)O[C@H](c3ccc(O)cc3)CC4=O)O[C@H](CO)[C@@H](O)[C@@H]2O)[C@H](O)[C@H](O)[C@H]1O : fold change is 1.36

Summary for this compound, CC(C)(C)NC[C@@H](O)COc1nsnc1N1CCOCC1 : fold change is 0.87

Summary for this compound, Nc1ccc(S(=O)(=O)Nc2ccnn2-c2ccccc2)cc1 : fold change is 0.94

Summary for this compound, CCN(CC)CC(=O)Nc1c(C)cccc1C : fold change is 0.78

====

# reported fold change; entries follow
assay: HSE-luciferase reporter activators – cell-based (AID 1611); details: human cells, HSE-luciferase heat shock reporter; stronger effect = higher value
Please state the value as a number alone, without comment.

| compound | fold change |
| --- | --- |
| CCCCCC(C)N (configuration not stated) | 1.8 |

Summary for this compound, O=C1C(CCS(=O)c2ccccc2)C(=O)N(c2ccccc2)N1c1ccccc1 (configuration not stated) : fold change is 0.91

Summary for this compound, CCC(=O)c1ccc2c(c1)N(CC(C)N(C)C)c1ccccc1S2 (configuration not stated) : fold change is 0.88

Summary for this compound, CC(=O)OCC1=C(C(=O)O)N2C(=O)[C@@H](NC(=O)Cc3cccs3)[C@H]2SC1 : fold change is 1.09

Summary for this compound, CN1CCC[C@@H]1CCO[C@](C)(c1ccccc1)c1ccc(Cl)cc1 : fold change is 0.87

Summary for this compound, Oc1ccc(Cl)c2cccnc12 : fold change is 1.15

Summary for this compound, CCc1cc(C(N)=S)ccn1 : fold change is 0.94

Summary for this compound, CN1CCC(=C2c3ccccc3CC(=O)c3sccc32)CC1 : fold change is 1.41

Summary for this compound, CCCCNc1cc(C(=O)O)cc(S(N)(=O)=O)c1Oc1ccccc1 : fold change is 1.03

Summary for this compound, CN1C2CC[C@H]1CC(OC(=O)C(O)c1ccccc1)C2 (some centres not stated) : fold change is 1.12

Summary for this compound, Cc1ccc(C(=O)C(C)CN2CCCCC2)cc1 (configuration not stated) : fold change is 0.93

Summary for this compound, CSc1ccc2c(c1)N(CCC1CCCCN1C)c1ccccc1S2 (configuration not stated) : fold change is 0.58

====

assay: HSE-luciferase reporter activators – cell-based (AID 1611); conditions: human cells, HSE-luciferase heat shock reporter; stronger effect = higher value
# reported fold change; entries follow
Please state the value as a number alone, without comment.

| line-notation | fold change |
| --- | --- |
| CC12CC3CC(C)(C1)CC(N)(C3)C2 | 0.96 |
| CN=C(NC#N)NCCSCc1nc[nH]c1C | 0.5 |
| CCOC(N)=O | 0.87 |

Summary for this molecule, O=C1c2ccc(O)c(O)c2C(=O)c2c(O)ccc(O)c21 : fold change is 0.67

Summary for this molecule, CCN(CC)C(=O)c1cccc(C)c1 : fold change is 0.91

Summary for this molecule, O=C(CCCN1CC=C(n2c(=O)[nH]c3ccccc32)CC1)c1ccc(F)cc1 : fold change is 0.88

Summary for this molecule, C=C(C)[C@H]1CC=C(C(=O)O)CC1 : fold change is 1.32

====

experiment: HSE-luciferase reporter activators – cell-based (AID 1611); conditions: human cells, HSE-luciferase heat shock reporter; stronger effect = higher value
# reported fold change; entries follow
Please state the value as a number alone, without comment.

| compound | readout-number |
| --- | --- |
| CC(C)[N+]1(C)C2CC[C@@H]1CC(OC(=O)C(CO)c1ccccc1)C2 (stereo partly specified) | 0.91 |

Summary for this compound, Cn1c(=O)c2[nH]cnc2n(C)c1=O : fold change is 1.18

Summary for this compound, CC(C)NNC(=O)c1ccncc1 : fold change is 1.02

Summary for this compound, CCN(CC)C(C)CN1c2ccccc2Sc2ccccc21 (stereo unspecified) : fold change is 1.55

Summary for this compound, COC(=O)C1=C(C)NC(C)=C(C(=O)OC)C1c1ccccc1[N+](=O)[O-] : fold change is 1.12

Summary for this compound, N=c1nc(N2CCCCC2)cc(N)n1O : fold change is 0.77

====

test: HSE-luciferase reporter activators – cell-based (AID 1611); conditions: human cells, HSE-luciferase heat shock reporter; stronger effect = higher value
Label rule met when fold change is at or above 0.8; anything below gets rule not met.

Sample answers from the record:
| compound | label-class |
| --- | --- |
| COC(=O)[C@H]1[C@H]2C[C@@H]3c4[nH]c5cc(OC)ccc5c4CCN3C[C@H]2C[C@@H](OC(=O)c2cc(OC)c(OC)c(OC)c2)[C@@H]1OC | rule not met |
| Cc1ccc(C(=O)c2ccc(CC(=O)O)n2C)cc1 | rule met |
| CC(=O)Nc1nnc(S(N)(=O)=O)s1 | rule not met |
| CC(C)(C)NCC(O)c1cc(O)cc(O)c1 (centres undefined) | rule met |
| O=C(O)c1ccccc1O | rule not met |
| CO/N=C(/C(=O)NC1C(=O)N2C(C(=O)O)=C(COC(N)=O)CSC12)c1ccco1 (centres undefined) | rule met |

q: Check the entry CO[C@H]1C[C@H](O[C@H]2[C@H](C)[C@@H](OC3O[C@H](C)C[C@H](N(C)C)[C@H]3O)[C@@H](C)C[C@]3(CO3)C(=O)[C@H](C)[C@@H](O)[C@@H](C)[C@@H](C)OC(=O)[C@@H]2C)O[C@@H](C)[C@@H]1O (some centres undefined) : does fold change equal or exceed 0.8?
a: rule not met

q: Check the entry Cn1c(=O)c2c(ncn2CCO)n(C)c1=O : does fold change equal or exceed 0.8?
a: rule not met

====

test: HSE-luciferase reporter activators – cell-based (AID 1611); conditions: human cells, HSE-luciferase heat shock reporter; stronger effect = higher value
# reported fold change; entries follow
Please state the value as a number alone, without comment.

Consider the reported fold change for these compounds:
| compound | reported-endpoint | readout-number |
| --- | --- | --- |
| CCN(CC)CCNC(=O)c1cc(Cl)c(N)cc1OC | fold change | 1.24 |
| C#CCN(C)Cc1ccccc1 | fold change | 1.01 |

Summary for this compound, C[N+](C)(C)CCO : fold change is 0.93

Summary for this compound, NC(N)=NC(N)=Nc1ccccc1 : fold change is 0.95

Summary for this compound, O=C(O)c1cc2cc(Cc3cccnc3)ccc2o1 : fold change is 0.83

Summary for this compound, COc1ccc2cc3[n+](cc2c1OC)CCc1cc2c(cc1-3)OCO2 : fold change is 1.07

Summary for this compound, NC(N)=N/N=C\c1c(Cl)cccc1Cl : fold change is 0.39

Summary for this compound, CCCc1ncc(C[n+]2ccccc2C)c(N)n1 : fold change is 1.19

Summary for this compound, COCCc1ccc(OCC(O)CNC(C)C)cc1 (stereo not drawn) : fold change is 0.6

Summary for this compound, COC1=CC(=O)C[C@@H](C)[C@]12Oc1c(Cl)c(OC)cc(OC)c1C2=O : fold change is 0.94

Summary for this compound, CN1CCN(CC(=O)N2c3ccccc3C(=O)Nc3cccnc32)CC1 : fold change is 1.06

Summary for this compound, Nc1ncnc2c1ncn2[C@@H]1O[C@H](CO)[C@@H](O)[C@@H]1O : fold change is 1.52

Summary for this compound, CC(C)=CCC/C(C)=C/CO : fold change is 3.1

Summary for this compound, CC(C[N+](C)(C)C)OC(N)=O (stereo not drawn) : fold change is 0.9

Summary for this compound, CC(=O)Oc1ccc2c(c1)CCC1C2CC[C@@]2(C)C1CC[C@@H]2OC(C)=O (stereo partly drawn) : fold change is 1.07

Summary for this compound, CCN(CC)CCOC(=O)C1(C2CCCCC2)CCCCC1 : fold change is 0.64

Summary for this compound, CNCCC=C1c2ccccc2CCc2ccccc21 : fold change is 1.45

Summary for this compound, OC[C@H]1O[C@@H](O[C@@H]2[C@@H](CO)O[C@](O)(CO)[C@H]2O)[C@H](O)[C@@H](O)[C@H]1O : fold change is 0.82

Summary for this compound, CC(=O)O[C@H]1C[C@@]2(C)[C@@H](C[C@@H](O)C3[C@]2(C)CC[C@H]2[C@H](C)[C@H](O)CC[C@]32C)/C1=C(/CCC=C(C)C)C(=O)O (stereo partly drawn) : fold change is 1

Summary for this compound, COC(=O)C(N)CS (stereo not drawn) : fold change is 0.85

Summary for this compound, CCOC(=O)C(Cc1ccc(O)cc1)NC(C)=O (stereo not drawn) : fold change is 0.71

Summary for this compound, CC[C@H]1OC(=O)[C@H](C)[C@@H](O[C@H]2C[C@@](C)(OC)[C@@H](O)[C@H](C)O2)[C@H](C)[C@@H](O[C@@H]2O[C@H](C)C[C@H](N(C)C)[C@H]2O)[C@](C)(O)C[C@@H](C)C(=O)[C@H](C)[C@@H](O)[C@]1(C)O : fold change is 0.93

Summary for this compound, C#C[C@]1(OC(C)=O)CCC2C3CCC4=CC(=O)CC[C@@H]4C3CC[C@@]21C (stereo partly drawn) : fold change is 0.92

Measured values drawn from PubChem BioAssay AID1611 for this set.
